- Test system: Erysiphe graminis f. sp. tritici
- PROCEDURE SUMMARY: Test A: wheat powdery mildew, preventive spray on wheat seedlings, disease rating
- Type: in vivo, Erysiphe graminis f. sp. tritici (on wheat seedlings)
- CONDITION INFO: 200 ppm test suspension sprayed to run-off (equivalent to 500 g/ha) on wheat seedlings; 100 = 100% disease control, 0 = no control; # = significant activity
- Excerpt: Test compounds were first dissolved in acetone in an amount equal to 3% of the final volume and then suspended at a concentration of 200 ppm in purified water containing 250 ppm of the surfactant Trem® 014 (polyhydric alcohol esters). The resulting test suspensions were then used in the following test. Spraying these 200 ppm test suspensions to the point of run-off on the test plants is the equivalent of a rate of 500 g/ha. The test suspension was sprayed to the point of run-off on wheat seedlings. […]
Listed here: items and their measured Test A disease control rating (wheat powdery mildew).

# COMPOUND, RESULT
measured = [
    ("CC(COc1cc(F)ccc1F)NC(=O)C1(C(F)(F)F)CC(C)(Cl)C1 (centres unmarked) [compound 27]", "72%"),
]

Prompt: Provide Test A disease control rating (wheat powdery mildew), recorded with Erysiphe graminis f. sp. tritici, of CC(COc1cc(F)ccc1F)NC(=O)C1(C)CC(C)(Br)C1 (centres unmarked) [compound 57]
Completion: 90# %

* * *

Listed here: items and their measured Test C disease control rating (rice blast).
- Tested on: Pyricularia oryzae
- Format: in vivo, Pyricularia oryzae (on rice seedlings)
- CONDITION INFO: 200 ppm test suspension sprayed to run-off (equivalent to 500 g/ha) on rice seedlings; 100 = 100% disease control, 0 = no control; # = significant activity

Some molecules with recorded Test C disease control rating (rice blast):
# MOLECULE, RESULT
records = [
    ("CC(COc1cc(Cl)ccc1C#N)NC(=O)C1(C)CC(C)(Cl)C1 (stereo not shown) [compound 46]", "91# %"),
    ("CC(NC(=O)C1CC(C)(Cl)C1)c1ccc(Br)cc1 (stereo not shown) [compound 10]", "53%"),
    ("CC(CCc1ccccc1)NC(=O)C1(C(F)(F)F)CC(C)(Cl)C1 (mixture of isomers) [compound 2]", "64# %"),
    ("CC(COc1cc(F)ccc1F)NC(=O)C1(C)CC(C)(Br)C1 (stereo not shown) [compound 57]", "86# %"),
    ("CC(NC(=O)C1(C)CC(Cl)(CCl)C1)c1ccc2ccccc2c1 (stereo not shown) [compound 64]", "53%"),
    ("CC(NC(=O)C1(C)CC(C)(Cl)C1)c1ccc(Br)cc1 (stereo not shown) [compound 14]", "97# %"),
]

# evaluate next
Prompt: Write down Test C disease control rating (rice blast) measured for item CC(NC(=O)C1(C)CC(C)(Cl)C1)c1ccc2ccccc2c1 (stereo not shown) [compound 23]
Completion: 97# %

* * *

Listed here: items and their measured Test C disease control rating (rice blast).
- Tested on: Pyricularia oryzae
- Format: in vivo, Pyricularia oryzae (on rice seedlings)
- CONDITION INFO: 200 ppm test suspension sprayed to run-off (equivalent to 500 g/ha) on rice seedlings; 100 = 100% disease control, 0 = no control; # = significant activity

# COMPOUND, RESULT
records = [
    ("CC(NC(=O)C1(C)CC(C)(Br)C1)c1ccc(Cl)cc1Cl (stereo not drawn) [compound 68]", "97# %"),
    ("CC(NC(=O)C1(C)CC(Cl)(CCl)C1)c1ccc2ccccc2c1 (stereo not drawn) [compound 63]", "53%"),
    ("CC(NC(=O)C1(C)CC(Cl)(CCl)C1)c1ccc(Br)cc1 (stereo not drawn) [compound 62]", "97# %"),
    ("CC(NC(=O)C1(C)CC(C)(Br)C1)c1ccc(Br)cc1 (stereo not drawn) [compound 17]", "74%"),
    ("CC(NC(=O)C1CC(C)(Cl)C1)C(Oc1cc(F)ccc1F)c1ccccc1 (stereo not drawn) [compound 32]", "52%"),
]

Prompt: Write down Test C disease control rating (rice blast) measured for item CC(COc1cc(Br)ccc1C#N)NC(=O)C1(C)CC(C)(Cl)C1 (stereo not drawn) [compound 47]
Completion: 94# %

Prompt: Write down Test C disease control rating (rice blast) measured for item CC(NC(=O)C1(C(F)(F)F)CC(C)(Cl)C1)c1ccc(Cl)cc1 (stereo not drawn) [compound 6]
Completion: 98# %
